- System: HIV-1 Bal virus
- Assay name: Inhibitory activity on PBMCs infected with HIV-1 Bal (reverse transcriptase in supernatant)
- Assay type: cell-based
- Experimental parameters: compounds in culture medium for 5 days, read-out: IC50 viral replication (amount of reverse transcriptase in the supernatant)
Value type: IC50

[[record]]
line_notation = "Cc1cn([C@H]2C[C@H](N=[N+]=[N-])[C@@H](CO)O2)c(=O)[nH]c1=O"
value_type = "IC50"
reported_result = "< 1 µM"


// data source = patent US7767681B2
